Entries annotated with measured Tmax
Assay: Pharmacokinetics following a single oral dose in male Sprague-Dawley rats
Format: in vivo
Conditions: rat, single po dose 10 mg/kg, plasma
Assay Metric: Tmax (min)

[[record]]
compound = "Cc1cnn(Cc2ccc(Cn3cc(C(=O)NCc4ccc5c(N)nccc5c4)c(C)n3)cc2)c1 [Example 11]"
assay_metric = "Tmax"
experimental_result = 23

[[record]]
compound = "O=C(NCc1cccc2[nH]ncc12)c1cn(Cc2ccc(Cn3ccccc3=O)cc2)nc1C(F)(F)F [Example 126]"
assay_metric = "Tmax"
experimental_result = 30

[[record]]
compound = "Cc1cnn(Cc2ccc(Cn3cc(C(=O)NCc4ccc5c(N)nccc5c4)c(C(F)(F)F)n3)cc2)c1 [Example 36]"
assay_metric = "Tmax"
experimental_result = 75

[[record]]
compound = "Cc1cnn(Cc2ccc(Cn3cc(C(=O)NCc4ccc5c(N)nccc5c4)c(C4CC4)n3)cc2)c1 [Example 12]"
assay_metric = "Tmax"
experimental_result = 30

[[record]]
compound = "Cc1cnn(Cc2ccc(Cn3cc(C(=O)NCc4cnc5[nH]ccc5c4)cn3)cc2)c1 [Example 117]"
assay_metric = "Tmax"
experimental_result = 45

